Assay: Pharmacokinetics in Sprague Dawley rats (plasma and brain concentrations, PK parameters)
Format: in vivo
Details: Sprague Dawley, rat, plasma, po, 10 mg/kg, Sprague Dawley rat, po 10 mg/kg, plasma, 4 h, Rat 5; read-out: Concentration Rat 5
measuredMetric: concentration at 4 h

Need concentration at 4 h, item O=C1CCC(N2C(=O)c3cccc(NCCOCCOCCNCc4ccc(-n5cc(NC(=O)c6coc(-c7ccnc(NCC8CC8)c7)n6)c(C(F)F)n5)cc4)c3C2=O)C(=O)N1 (stereo not shown) [I-210]
4.02 ng/mL

---

Test: Pharmacokinetics in CD-1 mice (plasma concentrations, PK parameters)
Assay type: in vivo
Conditions: CD-1, mouse, plasma, iv, 2 mg/kg, mouse (CD1) iv 2 mg/kg; Mean IV; read-out: AUC0-last
measuredMetric: AUC(0-t) (ng·h/mL)
Give just the numeric value; ng·h/mL need not be written.

I'd like to know its AUC(0-t). The compound in question is NC(=O)c1nn(-c2ccc(C(=O)NCCOCCOCCNc3cccc4c3C(=O)N(C3CCC(=O)NC3=O)C4=O)cc2)cc1NC(=O)c1coc(-c2ccnc(NCC(F)(F)F)c2)n1 (stereo not shown)
496

---

Assay: Pharmacokinetics in CD-1 mice (plasma concentrations, PK parameters)
Format: in vivo
Settings: CD-1, mouse, plasma, sc, 30 mg/kg, mouse (CD1) sc 30 mg/kg; individual Mouse 7-9; read-out: MRTInf_obs
Protocol: Pharmacokinetics for I-127, I-172 and I-210 were determined in Sprague Dawley rats or CD-1 mice by dosing intravenous (IV), subcutaneous (SC) or per oral (PO) using facility SOPs and sampling plasma at required time points. […] Compounds were extracted from plasma, injected on reverse phase HPLC, eluted with a gradient from 5% to 95% acetonitrile in water and quantified by mass spectrometry with internal standard. […]
Exercise: state measured MRT inf for each of the compounds provided.
Numeric only. Scale: h

Form field: reported MRT inf of NC(=O)c1nn(-c2ccc(C(=O)NCCCCCNCCNc3cccc4c3C(=O)N(C3CCC(=O)NC3=O)C4=O)cc2)cc1NC(=O)c1coc(-c2ccnc(NCC(F)(F)F)c2)n1 (centres unmarked)
10.4

And the next one, O=C1CCC(N2C(=O)c3cccc(NCCOCCOCCNCc4ccc(-n5cc(NC(=O)c6coc(-c7ccnc(NCC8CC8)c7)n6)c(C(F)F)n5)cc4)c3C2=O)C(=O)N1 (centres unmarked) ?
6.06

---

Assay: Pharmacokinetics in CD-1 mice (plasma concentrations, PK parameters)
Format: in vivo
Details: CD-1, mouse, plasma, sc, 30 mg/kg, mouse (CD1) sc 30 mg/kg; Mean SC; read-out: AUC0-last
Experimental: Pharmacokinetics for I-127, I-172 and I-210 were determined in Sprague Dawley rats or CD-1 mice by dosing intravenous (IV), subcutaneous (SC) or per oral (PO) using facility SOPs and sampling plasma at required time points. […] Compounds were extracted from plasma, injected on reverse phase HPLC, eluted with a gradient from 5% to 95% acetonitrile in water and quantified by mass spectrometry with internal standard. […]
measuredMetric: AUC(0-t) (ng·h/mL)
Write the answer as a number in ng·h/mL, unit excluded.

So what's the measured AUC(0-t) for this one? NC(=O)c1nn(-c2ccc(C(=O)NCCOCCOCCNc3cccc4c3C(=O)N(C3CCC(=O)NC3=O)C4=O)cc2)cc1NC(=O)c1coc(-c2ccnc(NCC(F)(F)F)c2)n1 (stereo not shown) [I-127]
39.8

---

Experiment: Pharmacokinetics in CD-1 mice (plasma concentrations, PK parameters)
Format: in vivo
Settings: CD-1, mouse, plasma, sc, 30 mg/kg, mouse (CD1) sc 30 mg/kg; 0.5 h; Mean; read-out: Concentration
measuredMetric: concentration at 0.5 h (ng/mL)
Just the number please, in ng/mL, no unit attached.

Returns the measured concentration at 0.5 h for the input compound. Input: O=C1CCC(N2C(=O)c3cccc(NCCOCCOCCNCc4ccc(-n5cc(NC(=O)c6coc(-c7ccnc(NCC8CC8)c7)n6)c(C(F)F)n5)cc4)c3C2=O)C(=O)N1 (centres unmarked) [I-210]
85

Entry NC(=O)c1nn(-c2ccc(C(=O)NCCCCCNCCNc3cccc4c3C(=O)N(C3CCC(=O)NC3=O)C4=O)cc2)cc1NC(=O)c1coc(-c2ccnc(NCC(F)(F)F)c2)n1 (centres unmarked) [I-172] please
64.8

---

Assay: Pharmacokinetics in CD-1 mice (plasma concentrations, PK parameters)
Format: in vivo
Details: CD-1, mouse, plasma, iv, 2 mg/kg, mouse (CD1) iv 2 mg/kg; Mean IV; read-out: MRT0-inf
measuredMetric: MRT inf

Which value of MRT inf has been reported for NC(=O)c1nn(-c2ccc(C(=O)NCCOCCOCCNc3cccc4c3C(=O)N(C3CCC(=O)NC3=O)C4=O)cc2)cc1NC(=O)c1coc(-c2ccnc(NCC(F)(F)F)c2)n1 (stereo not shown) in the records?
1.54 h

---

Target: IRAK4 (Homo sapiens, UniProt Q9NWZ3)
Sequence (Q9NWZ3 whole entry): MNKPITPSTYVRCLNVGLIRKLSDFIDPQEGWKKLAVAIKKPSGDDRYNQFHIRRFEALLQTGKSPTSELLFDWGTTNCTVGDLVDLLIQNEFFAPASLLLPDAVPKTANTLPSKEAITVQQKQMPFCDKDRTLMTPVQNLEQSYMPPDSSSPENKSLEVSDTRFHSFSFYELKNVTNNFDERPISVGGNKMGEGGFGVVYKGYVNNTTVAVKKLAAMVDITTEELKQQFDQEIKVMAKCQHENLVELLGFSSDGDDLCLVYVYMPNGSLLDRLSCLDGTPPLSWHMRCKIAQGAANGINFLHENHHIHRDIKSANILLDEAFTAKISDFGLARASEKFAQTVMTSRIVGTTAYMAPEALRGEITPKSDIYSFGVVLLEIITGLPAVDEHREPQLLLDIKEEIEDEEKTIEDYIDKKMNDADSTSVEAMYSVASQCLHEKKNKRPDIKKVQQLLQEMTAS
Assay: OCI-LY-10 degradation assay (western blot, % IRAK4 degraded after 4 hours)
Type: cell-based
Parameters: endogenous in cells; host or cells: OCI-LY10
Conditions: OCI-LY10 cells, 4 hours, 0.1 uM compound
measuredMetric: OCI-LY10 % IRAK4 Degradation (0.1 uM)

Observe how each entry below is paired with its result.
Which OCI-LY10 % IRAK4 Degradation (0.1 uM) is reported for this compound? NC(=O)c1nn(-c2ccc(CNCCCCCOCCCc3cccc4c3C(=O)N(C3CCC(=O)NC3=O)C4=O)cc2)cc1NC(=O)c1coc(-c2ccnc(NCC3CC3)c2)n1 (stereo not shown)
A (>50% degradation)

Try O=C1CCC(N2C(=O)c3cccc(NC4CN(CCOCCOCCNCc5ccc(-n6cc(NC(=O)c7coc(-c8ccnc(NCC9CC9)c8)n7)c(C(F)F)n6)cc5)C4)c3C2=O)C(=O)N1 (stereo not shown) next.
B (>20-50% degradation)

Try CN(CCOCCOCCCc1cccc2c1C(=O)N(C1CCC(=O)NC1=O)C2=O)C(=O)c1ccc(-n2cc(NC(=O)c3coc(-c4ccncc4)n3)c(C(N)=O)n2)cc1 (stereo not shown) next.
A (>50% degradation)

Can you check NC(=O)c1nn(-c2ccc(C(=O)NCCOCCOCCOCCOCC#Cc3cccc4c3C(=O)N(C3CCC(=O)NC3=O)C4=O)cc2)cc1NC(=O)c1coc(-c2ccnc(NCC(F)(F)F)c2)n1 (stereo not shown) next?
B (>20-50% degradation)

Item: O=C1CCC(N2C(=O)c3cccc(CCCNCc4ccc(-n5cc(NC(=O)c6coc(-c7ccnc(NCC(F)(F)F)c7)n6)c(C(F)F)n5)cc4)c3C2=O)C(=O)N1 (stereo not shown)
C (<20% degradation)

Another compound to look at: O=C1CCC(N2Cc3cc(NC4CCN(CCOCCOCCNCc5ccc(-n6cc(NC(=O)c7coc(-c8ccnc(NCC9CC9)c8)n7)c(C(F)F)n6)cc5)CC4)ccc3C2=O)C(=O)N1 (stereo not shown)
C (<20% degradation)

More entries:
GET /values?readout=OCI-LY10 % IRAK4 Degradation (0.1 uM)&item= NC(=O)c1nn(CC#CC#CCOCCOCCNc2cccc3c2C(=O)N(C2CCC(=O)NC2=O)C3=O)cc1NC(=O)c1coc(-c2ccnc(NCC3CC3)c2)n1 (stereo not shown)
C (<20% degradation)

Also NC(=O)c1nn(-c2ccc(CNCCOCCOCCCc3cccc4c3CN(C3CCC(=O)NC3=O)C4=O)cc2)cc1NC(=O)c1coc(-c2ccnc(NCC3CC3)c2)n1 (stereo not shown) ?
A (>50% degradation)

// repeat for O=C1CCC(N2C(=O)c3cccc(NCCNCCCCCNC(=O)c4ccc(-n5cc(NC(=O)c6coc(-c7ccnc(NC8CC8)c7)n6)c(C(F)F)n5)cc4)c3C2=O)C(=O)N1 (stereo not shown) and report
A (>50% degradation)

Try this compound too: NC(=O)c1nn(CCOCCOCCOCCNc2cccc3c2C(=O)N(C2CCC(=O)NC2=O)C3=O)cc1NC(=O)c1coc(-c2ccnc(NCC3CC3)c2)n1 (stereo not shown)
C (<20% degradation)

Again, but for O=C1CCC(N2C(=O)c3cccc(NCCOCCN4CCO[C@H](CNC(=O)c5ccc(-n6cc(NC(=O)c7coc(-c8ccnc(NCC(F)(F)F)c8)n7)c(C(F)F)n6)cc5)C4)c3C2=O)C(=O)N1 (stereo partly shown)
A (>50% degradation)

Cool, now CN(CCOCCCc1ccc2c(c1)C(=O)N(C1CCC(=O)NC1=O)C2=O)Cc1ccc(-n2cc(NC(=O)c3coc(-c4ccncc4)n3)c(C(F)F)n2)cc1 (stereo not shown)
C (<20% degradation)

Check O=C1CCC(N2C(=O)c3ccc(NCCc4cnnn4CCOCCOCCNCc4ccc(-n5cc(NC(=O)c6coc(-c7ccnc(NCC8CC8)c7)n6)c(C(F)F)n5)cc4)cc3C2=O)C(=O)N1 (stereo not shown) too.
B (>20-50% degradation)

Please answer likewise for O=C1CCC(N2C(=O)c3cccc(NC4CCN(CCOCCOCCOCCNCc5ccc(-n6cc(NC(=O)c7coc(-c8ccnc(NCC9CC9)c8)n7)c(C(F)F)n6)cc5)CC4)c3C2=O)C(=O)N1 (stereo not shown)
B (>20-50% degradation)

Please give the result for O=C1CCC(N2C(=O)c3ccc(NCCOCCOCCNCc4ccc(-n5cc(NC(=O)c6coc(-c7ccnc(NCC8CC8)c7)n6)c(C(F)F)n5)cc4)cc3C2=O)C(=O)N1 (stereo not shown) too.
A (>50% degradation)

Same for NC(=O)c1nn(Cc2cn(CCOCCOCCNc3cccc4c3C(=O)N(C3CCC(=O)NC3=O)C4=O)nn2)cc1NC(=O)c1coc(-c2ccnc(NCC3CC3)c2)n1 (stereo not shown)
C (<20% degradation)

Also check O=C1CCC(N2C(=O)c3cccc(CCCCCN4CCC(n5cc(NC(=O)c6coc(-c7ccnc(NCC8CC8)c7)n6)c(C(F)F)n5)CC4)c3C2=O)C(=O)N1 (stereo not shown)
B (>20-50% degradation)

Ok, now CN(CCOCCCc1cccc2c1C(=O)N(C1CCC(=O)NC1=O)C2=O)C(=O)c1ccc(-n2cc(NC(=O)c3coc(-c4ccnc(NCC5CC5)c4)n3)c(C(N)=O)n2)cc1 (stereo not shown)
C (<20% degradation)

What about this compound? O=C1CCC(N2C(=O)c3ccc(CCCCCN4CCC(n5cc(NC(=O)c6coc(-c7ccnc(NCC8CC8)c7)n6)c(C(F)F)n5)CC4)cc3C2=O)C(=O)N1 (stereo not shown)
C (<20% degradation)

Also O=C1CCC(N2C(=O)c3cccc(NCCOCCN4CCN(CCOCCNCc5ccc(-n6cc(NC(=O)c7coc(-c8ccnc(NCC9CC9)c8)n7)c(C(F)F)n6)cc5)CC4)c3C2=O)C(=O)N1 (stereo not shown) , if possible.
C (<20% degradation)

Same again, this time with NC(=O)c1nn(-c2ccc(C(=O)NCCOCCOCCNc3cccc4c3C(=O)N(C3CCC(=O)NC3=O)C4=O)cc2)cc1NC(=O)c1coc(-c2ccnc(N)c2)n1 (stereo not shown)
A (>50% degradation)

Could you do the same for O=C1CCC(N2C(=O)c3cccc(NCCOCCOCCN4Cc5ccc(-n6cc(NC(=O)c7coc(-c8ccnc(NCC9CC9)c8)n7)c(C(F)(F)F)n6)cc5C4)c3C2=O)C(=O)N1 (stereo not shown) , please?
C (<20% degradation)
